experiment: Dynamic light scattering of DNA-conjugate micelles (hydrodynamic radius, self-assembly); assay type: physicochemical; conditions: 10 μM in magnesium containing (TAMg) buffer, 25° C.
measured_endpoint: self-assembly / scattering by DLS

[
  {
    "substance": "HE6-DNA: DDDDDDTTTTTCAGTTGACCATATA; D = residue from DMT-dodecane-diol amidite (dodecane-diol (HE) units conjugated, chemistry not fully specified)",
    "observed": "strong scattering"
  },
  {
    "substance": "HE6-HEG6-DNA: DDDDDDHHHHHHTTTTTCAGTTGACCATATA; D dodecane-diol, H hexaethyloxy glycol residues (dodecane-diol and hexaethylene glycol units conjugated, chemistry not fully specified)",
    "observed": "strong scattering"
  }
]

// provenance: patent US20190060324A1
